All figures here come from PubChem BioAssay (NCI).

Tested on: 786-0 renal
Assay: NCI tumour cell line growth inhibition, 48 h
measured property: GI50

Example cases with answers are listed next.
Inquiry: Quick one: GI50 for C=C1C(=O)O[C@H]2[C@H]1CC/C(COC(=O)NCc1c[nH]c3ccc(OC)cc13)=C\CC[C@@]1(C)O[C@@H]21 ?
Reply text: 0.445 µM

Inquiry: One more compound: Nc1nn(C(=O)Nc2ccc(Cc3ccccc3)cc2)c2ccc(Cl)cc12
Reply text: 4.59 µM

Inquiry: Now consider COc1c(Nc2ncc(Cl)c(N[C@@H]3[C@H]4C=CC(C4)[C@@H]3C(N)=O)n2)ccc2c1CC[C@@H](N1CCOCC1)CC2 and answer again.
Reply text: 1.97 µM

Inquiry: Now this one: C[CH2][Sn]1([CH2]C)[O]C2C(O)OC(CO)C(O)C2[O]1 (stereo not drawn)
Reply text: 23 µM

Inquiry: Try this compound too: CNC(=O)c1cc(Oc2ccc3nc(NC(=O)c4cc(C(F)(F)F)cc(C(F)(F)F)c4)sc3c2)ccn1
Reply text: 2.55 µM

Further cases:
Inquiry: Quick one: GI50 for O=C(O[C@H]1CN[C@H](C#Cc2cc3ncnc(Nc4ccc(Cc5ccccc5)cc4)c3s2)C1)N1CCOCC1 ?
Reply text: 7.3 µM

Inquiry: Please give the result for N#Cc1cc(-c2ccccc2)[nH]c1-c1nccc2ccccc12 too.
Reply text: 26.9 µM

Inquiry: Similarly, [Ce+3].[Cl-].[O-]/N=C(\c1ccccc1)c1ccccn1.[O-]/N=C(\c1ccccc1)c1ccccn1.[O-]/N=C(\c1ccccc1)c1ccccn1 ?
Reply text: 47 µM
